Value source: patent US20130072519A1

Tested on: Apolipoprotein B Secretion from HepG2 Cells
Assay: Inhibition of Apolipoprotein B secretion from HepG2 cells (ELISA)
Format: cell-based, human
Conditions: Homo sapiens, HepG2, HepG2 cells, 22-24 hours incubation, ApoB ELISA; Low/High IC50 columns give the 95% confidence interval
Recorded measurements of IC50, one per entry
measure: IC50 (nM)

1) CCOC(=O)C1(COC(=O)Cc2ccc(NC(=O)c3ccccc3-c3ccc(OC(C)C)cc3)c(C(=O)N(C)C)c2)c2ccccc2C(=O)N1C (stereo not drawn)	0.124
2) CCOC(=O)C1(COC(=O)Cc2ccc(NC(=O)c3ccc(C(F)(F)F)cc3-c3ccc(C(F)(F)F)cc3)c(C(=O)N(C)C)c2)OC(=O)c2ccccc21 (stereo not drawn)	15.7
3) CCOC(=O)[C@]1(COC(=O)Cc2ccc(NC(=O)c3cccc(OC)c3-c3ccccc3)c(C(=O)N(C)C)c2)c2ccccc2C(=O)N1C	0.536
4) CCOC(=O)[C@]1(COC(=O)Cc2ccc(NC(=O)c3ccc(C)cc3-c3ccc(C(C)(C)C)cc3)c(C(=O)N(C)C)c2)c2ccccc2C(=O)N1C	0.178
5) CCOC(=O)[C@]1(COC(=O)Cc2ccc(NC(=O)c3cccc(C)c3-c3ccc(C(C)(C)C)cc3)c(C(=O)N(C)C)c2)c2ccccc2C(=O)N1C	0.244
6) CCOC(=O)C1(COC(=O)Cc2ccc(NC(=O)c3ccccc3-c3ccc(C(F)(F)F)cc3)c(C(=O)N(C)C)c2)CCc2ccccc21 (racemic)	2.04
7) CCOC(=O)[C@]1(COC(=O)Cc2ccc(NC(=O)c3cccc(OC)c3-c3ccc(OC(C)C)cc3)c(C(=O)N(C)C)c2)c2ccccc2C(=O)N1C	0.119
8) CCOC(=O)[C@]1(COC(=O)Cc2ccc(NC(=O)c3ccccc3-c3ccc(C(C)C)cc3)c(C(=O)N(C)C)c2)c2ccccc2C(=O)N1C	0.162
9) CCOC(=O)C1(COC(=O)Cc2ccc(NC(=O)c3cccc(C)c3-c3ccc(C(C)(C)C)cc3)c(C(=O)N(C)C)c2)OC(=O)c2ccccc21 (stereo not drawn)	519
10) CCOC(=O)C1(COC(=O)Cc2ccc(NC(=O)c3ccccc3-c3ccc(C(F)(F)F)cc3)c(C(=O)N(C)C)c2)CCCc2cccnc21 (racemic)	0.529
11) CCOC(=O)[C@]1(COC(=O)Cc2ccc(NC(=O)c3cccc(C)c3-c3ccc(C(F)(F)F)cc3)c(C(=O)N(C)C)c2)c2ccccc2C(=O)N1C	0.242
12) CCOC(=O)C1(COC(=O)Cc2ccc(NC(=O)c3cccc(C)c3-c3ccc(OC(C)C)cc3)c(C(=O)N(C)C)c2)CCc2cccnc21 (stereo not drawn)	1.37
